Source: paper PMC4081100

Molecular target: GST-NTL8 NAC domain (Arabidopsis thaliana, UniProt Q9XIN7 14-156)
Sequence: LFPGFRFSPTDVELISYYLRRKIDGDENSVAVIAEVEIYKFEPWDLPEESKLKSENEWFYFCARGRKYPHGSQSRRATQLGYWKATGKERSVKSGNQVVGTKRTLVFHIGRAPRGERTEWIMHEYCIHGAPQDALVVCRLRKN
Assay: universal protein binding microarray (PBM); transcription factors of Arabidopsis thaliana; high values mean tight binding
Conditions: protein: recombinant; tags: GST; chain copies: 2; dsDNA, one strand shown
PROPERTY LABEL: binding signal (E-score)
Use E-score as the unit, but write only the number.

Prompt: Given CACGGAAC , state its recorded binding signal.
Response: 0.127

Prompt: Given CCCCGCCC , state its recorded binding signal.
Response: 0.372

Prompt: Given AAAGCAAC , state its recorded binding signal.
Response: 0.0929

Prompt: Given TTAAGCAA , state its recorded binding signal.
Response: 0.252

Prompt: Given GCACGTAA , state its recorded binding signal.
Response: 0.189

Prompt: Given GTAACTTA , state its recorded binding signal.
Response: 0.229

Prompt: Given AATTCCGT , state its recorded binding signal.
Response: 0.105

Prompt: Given CCACGCTA , state its recorded binding signal.
Response: 0.0925

Prompt: Given CAGGGAAA , state its recorded binding signal.
Response: 0.407

Prompt: Given AACGTAAG , state its recorded binding signal.
Response: 0.124

Prompt: Given AACGTAAC , state its recorded binding signal.
Response: 0.143

Prompt: Given TACGCCAA , state its recorded binding signal.
Response: 0.0846

Prompt: Given AGAGGTAA , state its recorded binding signal.
Response: 0.427

Prompt: Given CGAAGTCA , state its recorded binding signal.
Response: 0.132

Prompt: Given CTTTCTTC , state its recorded binding signal.
Response: 0.41

Prompt: Given CTTAAGTA , state its recorded binding signal.
Response: 0.264

Prompt: Given GAAAGGAA , state its recorded binding signal.
Response: 0.422

Prompt: Given AGGGAAAT , state its recorded binding signal.
Response: 0.406

Prompt: Given GGGAAACC , state its recorded binding signal.
Response: 0.443

Prompt: Given TGAAGAAA , state its recorded binding signal.
Response: 0.45

Prompt: Given AGTCAAAG , state its recorded binding signal.
Response: 0.0881

Prompt: Given CTTACGCA , state its recorded binding signal.
Response: 0.111

Prompt: Given GTTTCTTA , state its recorded binding signal.
Response: 0.28

Prompt: Given GCACTCAA , state its recorded binding signal.
Response: 0.0643

Prompt: Given CACGACAC , state its recorded binding signal.
Response: 0.0614

Prompt: Given AAGTAAGT , state its recorded binding signal.
Response: 0.267

Prompt: Given GAAGGTAA , state its recorded binding signal.
Response: 0.463

Prompt: Given GTTAAGTA , state its recorded binding signal.
Response: 0.228

Prompt: Given GAATTGAC , state its recorded binding signal.
Response: 0.051

Prompt: Given ACGTTACG , state its recorded binding signal.
Response: 0.13

Prompt: Given GTCAAAAA , state its recorded binding signal.
Response: 0.0654

Prompt: Given CTAAGTAA , state its recorded binding signal.
Response: 0.216

Prompt: Given TGGGTCAA , state its recorded binding signal.
Response: 0.0706

Prompt: Given AGAAAGTC , state its recorded binding signal.
Response: 0.0673

Prompt: Given CCCCACCC , state its recorded binding signal.
Response: 0.277

Prompt: Given GACGTAAC , state its recorded binding signal.
Response: 0.204

Prompt: Given TAGGGAAA , state its recorded binding signal.
Response: 0.438

Prompt: Given CTTAGTCA , state its recorded binding signal.
Response: 0.091

Prompt: Given GTACGTAA , state its recorded binding signal.
Response: 0.167

Prompt: Given TGCGTACA , state its recorded binding signal.
Response: 0.0577

Prompt: Given TAAGGAAA , state its recorded binding signal.
Response: 0.424

Prompt: Given CGAGGTCA , state its recorded binding signal.
Response: 0.0549

Prompt: Given GAAGGAAA , state its recorded binding signal.
Response: 0.485

Prompt: Given ACGGTCAG , state its recorded binding signal.
Response: 0.0654

Prompt: Given ATTCCGTA , state its recorded binding signal.
Response: 0.0978

Prompt: Given ATAAGTAA , state its recorded binding signal.
Response: 0.167
